meta.source: patent US20240368277A1

Target Under Test: T1, His6-tagged recombinant extracellular domain of human signal regulatory protein alpha (hSIRP1α) (human, UniProt P78324 31-373)
T1 construct: extracellular domain; also called antigen; not shown: His6 tag
T1 sequence (P78324 31-373): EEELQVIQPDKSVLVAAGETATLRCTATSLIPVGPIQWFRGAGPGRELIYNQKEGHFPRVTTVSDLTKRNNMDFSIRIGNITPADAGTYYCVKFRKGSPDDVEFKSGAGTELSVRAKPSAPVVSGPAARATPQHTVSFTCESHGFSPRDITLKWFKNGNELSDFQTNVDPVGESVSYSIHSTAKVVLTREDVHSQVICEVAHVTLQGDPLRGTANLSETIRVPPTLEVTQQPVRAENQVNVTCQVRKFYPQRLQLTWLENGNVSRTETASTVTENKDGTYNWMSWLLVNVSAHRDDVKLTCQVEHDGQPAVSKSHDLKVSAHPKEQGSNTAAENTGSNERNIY
Run Description: ELISA, crude periplasmic extracts on coated His6-tagged hSIRP1α extracellular domain

| Binder | binding result |
| --- | --- |
| 2HSI49 (VHH, The entry includes the C-terminal AAA linker, HA tag and His6 tag, as expressed from pMECS) VHH: QVQLQESGGGVVQTGDSLRLSCVASGRTFSSLDMGWFRQAPGKEREFVAGISRSGISQYYADSMKGRFTISRDNAKNLVYLQMNSLKPEDTAVYYCAAALTFRGSDLPRDSNYWGQGTQVTVSS | binds |
| 2HSI22 (VHH, The entry includes the C-terminal AAA linker, HA tag and His6 tag, as expressed from pMECS) VHH: QVQLQESGGGLVQPGGSLRLSCAASGLNFRRYTMGWFRQAPGKEREFVGVINWSDDSIYYADSVKGRFAISRDNTKNTVYLQMASLKPEDTAVYYCAASPQWDTRVRQTMRGKYDYWGQGTQVTVSS | binds |
| 2HSI88 (VHH, The entry includes the C-terminal AAA linker, HA tag and His6 tag, as expressed from pMECS) VHH: QVQLQESGGGVVQAGDSLRLSCVASGHTFSSLDMGWFRQAPGKEREFVAGISRSGISQYYADSMKGRFTISRDNAKNLVYLQMNSLKPEDTAVYYCAAALTFRGSDLPRDSNYWGQGTQVTVSS | binds |
| 2HSI98 (VHH, The entry includes the C-terminal AAA linker, HA tag and His6 tag, as expressed from pMECS) VHH: QVQLQESGGGVVQAGDSLGLSCVASGRTFSSLDMGWFRQAPGKEREFVAGISRSGISQYYADSMKGRFTISRDNAKNLVYLQMNSLKPEDTAVYYCAAALTFRGSDLPRDSNYWGQGTQVTVSS | binds |
